Molecular target: T1, JCV VP1 mutant L55F (John Cunningham virus (JCV), UniProt P03089 1-354)
T1 construct: also called VP1 L55F; 55m VP1
Experiment: ELISA, plates coated with pseudovirus, purified antibody
property: AB conc. (lowest concentration of antibody that gave a clear signal above background)

Worked set:
Req: Give the value of AB conc. (lowest concentration of antibody that gave a clear signal above background) reported for the following: 1E8 (antibody, V domains shown) VH: QVQLVESGGGLVKPGGSLRLSCAASGFTFSDHYMSWIRQAPGKGLEWVSYISTSGSTIYYADSVKGRFTISRDNAKNSLYLQMNSLRAEDTAVYYCASDYYDNSGWNYWGQGTLVTVSS VL: DVVMTQSPLSLPVTLGQPASISCRSSQSLVYSDGNTYLNWFQQRPGQSPRRLIYKVSDRDSGVPDRFSGSGSGTDFTLRISRVEAEDVGVYYCMQGSHWPRTFGQGTKVEIK
Resp: < 22 ng/mL

Req: Give the value of AB conc. (lowest concentration of antibody that gave a clear signal above background) reported for the following: 2A11 (antibody, V domains shown) VH: QVQLVESGGGLVKPGGSLRLSCAASGFTFSDHYMSWIRQAPGKGLEWVSYISTSGRTIYYVDSVKGRFTISRDNAKNSLYLQMNSLRAEDMAVYYCASDYYDNVGWNYWGQGALVTVSS VL: DVVLTQSPLSLPVTLGQPASISCRSSQSLVYSDGNTYLNWFQQRPGQSPRRLIYKVSDRDFGVPDRFSGSGSGTDFTLKISRVEAEDVGIYYCMQGTHWPRTFGQGTKVEIK
Resp: < 7.4 ng/mL

Req: Give the value of AB conc. (lowest concentration of antibody that gave a clear signal above background) reported for the following: 1E12 (antibody, V domains shown) VH: QVQLVESGGGLVKPGGSLRLSCTASGFTFSDHYMSWIRQAPGKGLEWVSYISTGGRTIYYADSVKGRFTISRDNAKNSLYLQMNSLRAEDTAVYYCASDYYDNVGWDYWGQGTLVTVSS VL: DVVLTQSPLSLPVTLGQPASISCRSSQSLIYSDGNTYLNWFQQRPGQSPRRLIYKVSDRDSGVPDRFSGSGSGTDFTLKISRVEAEDVGVYYCMQGTHWPRTFGQGTKVEIK
Resp: < 2.5 ng/mL

Please look at the following binder next.
Req: Give the value of AB conc. (lowest concentration of antibody that gave a clear signal above background) reported for the following: 1A3 (antibody, V domains shown) VH: QVQLVESGGGLVKPGGSLRLSCAASEITFSDYYMSWIRQAPGKGLEWISYISTSGRTIYFADSVKGRFTISRDNAKNSLYLQMNSLRADDTAVYYCASDFYDNSGWEYWGQGTLVTVSS VL: DVVMTQSPLSLSVTLGQPASISCRSSQSLVYSDGNTYLNWFQQRPGQSPRRLIYKVSDRDSGVPDRFSGSGSGTDFTLKISRAEAEDVGVYYCMQGTHWPRTFGQGTKVEIK
Resp: < 2.5 ng/mL
